Measured values drawn from paper doi:10.1101/2025.03.03.641193 for this set.

- targetEntity: R478A DXPS (Escherichia coli, UniProt P77488, R478A)
- assayExplanation: DXPS-IspC coupled assay, R478A variant
metricName: pKi
Field pKi (float): negative decimal logarithm of the concentration in molar.

stdin: Supply recorded pKi for ON=Cc1cc(O)c(O)cc1O [compound 1, 2,4,5-trihydroxybenzaldoxime] here.
stdout: 4.80

* * *

- targetEntity: R99A DXPS (Escherichia coli, UniProt P77488, R99A)
- Construct: made in house
- assayExplanation: DXPS-IspC coupled assay, R99A variant
- Type: biochemical, E. coli
- testSettings: Ki varying [D-GAP], R99A, GAP 0–500 μM, pyruvate 500 μM
metricName: pKi
Remember the convention: pKi equals -log10 of concentration in molar.

stdin: Return pKi (reported value) for this compound: ON=Cc1cc(O)c(O)cc1O [compound 1, 2,4,5-trihydroxybenzaldoxime]
stdout: 5.06

* * *

- targetEntity: PaDXPS (Pseudomonas aeruginosa, UniProt Q9KGU7)
- assayExplanation: DXPS-IspC coupled assay, PaDXPS
metricName: pKi
The value called pKi is obtained by taking minus log10 of the concentration in mol/L.

stdin: Report pKi on PaDXPS (Pseudomonas aeruginosa, UniProt Q9KGU7) for this entry: ON=Cc1cc(O)c(O)cc1O [compound 1, 2,4,5-trihydroxybenzaldoxime]
stdout: 4.79
